Data provenance: patent US20220204531A1

ASSAY REMARKS: Dissociation constant (Kd) by UV absorbance titration at 280 nm, galactose
Type: binding
EXPERIMENTAL CONTEXT: 1 mM DBA2+Br, 50 mM phosphate buffer pH 7.4; listed as Formula III
pKd: −log10 of the molar value.
ENDPOINT NAME: pKd

input: GET /values?readout=pKd&item= C[N+](C)(Cc1ccc(C[N+](C)(C)Cc2ccccc2B(O)O)cc1)Cc1ccccc1B(O)O
output: ~1.80

---

ASSAY REMARKS: Dissociation constant (Kd) by UV absorbance titration at 280 nm, galactose
Type: binding
EXPERIMENTAL CONTEXT: 1 mM DBA2+Br, 50 mM phosphate buffer pH 7.4
Experimental: The affinity and selectivity of DBA+ to glucose were then tested by comparing affinity with other five mono- or di-saccharides, particularly fructose, galactose, maltose, sucrose, and lactose. The UV absorption changes at 280 nm of DBA+ with the increase of sugar concentration was used for the affinity calculation. The absorbance values of 1 mM DBA+Br at 280 nm as function of sugar concentrations from 0 to 512 mM were measured in 50 mM Phosphate PBS (pH=7.4). […]
ENDPOINT NAME: Kd (mM)
Respond numerically; units are mM and should not be typed.

input: GET /values?readout=Kd&item= C[N+](C)(Cc1ccc(C[N+](C)(C)Cc2ccccc2B(O)O)cc1)Cc1ccccc1B(O)O
output: 16

---

ASSAY REMARKS: Dissociation constant (Kd) by UV absorbance titration at 280 nm, glucose
Assay type: binding
EXPERIMENTAL CONTEXT: 1 mM DBA2+Br, 50 mM phosphate buffer pH 7.4
ENDPOINT NAME: pKd
The meaning of pKd here: minus log10 of the concentration in molar units.

input: GET /values?readout=pKd&item= C[N+](C)(Cc1ccc(C[N+](C)(C)Cc2ccccc2B(O)O)cc1)Cc1ccccc1B(O)O
output: 3.05

---

ASSAY REMARKS: Effect of interference sugars on DBA2+ based conductimetric sensor (solution resistance)
EXPERIMENTAL CONTEXT: testing solution with 20 mM glucose; interference sugar 1 mM (maltose 10 mM); relative to resistance with glucose alone
ENDPOINT NAME: Resistance increase (%)
Respond numerically; units are % and should not be typed.

input: GET /values?readout=Resistance increase&item= OC[C@H]1O[C@@H](O[C@H]2[C@H](O)[C@@H](O)C(O)O[C@@H]2CO)[C@H](O)[C@@H](O)[C@H]1O (stereo partly shown) [Lactose, lactose]
output: 1.6

input: Now give it for O=C(CO)[C@@H](O)[C@H](O)[C@H](O)CO [Fructose, fructose] too.
output: −0.3

input: Now give it for O=C[C@H](O)[C@@H](O)[C@@H](O)[C@H](O)CO [Galactose, galactose] too.
output: 0.6

input: Now give it for OC[C@H]1O[C@H](O[C@H]2[C@H](O)[C@@H](O)[C@H](O)O[C@@H]2CO)[C@H](O)[C@@H](O)[C@@H]1O [Maltose, maltose] too.
output: 1.6

---

ASSAY REMARKS: Dissociation constant (Kd) by UV absorbance titration at 280 nm, fructose
Type: binding
EXPERIMENTAL CONTEXT: 1 mM DBA2+Br, 50 mM phosphate buffer pH 7.4; listed as Formula III
pKd: −log10 of the molar value.
ENDPOINT NAME: pKd

input: GET /values?readout=pKd&item= C[N+](C)(Cc1ccc(C[N+](C)(C)Cc2ccccc2B(O)O)cc1)Cc1ccccc1B(O)O [DBA2+]
output: ~2.77
